# experimentalDetails: Resistance ratio of IC50 for antiproliferative activity against human NCI/ADR-RES cells expressing Pgp to IC50 for antiproliferative activity against human OVCAR-8 cells
# Type: functional
parameterMeasured: Ratio IC50
Kindly provide the number alone.

# annotated cases, reported Ratio IC50 shown
COc1ccc2c(c1)CCCN2c1nc(Cl)nc2cnn(C)c12	0.47
COc1ccc(N(C)c2nc(Cl)nc3cnn(C)c23)cc1	0.55
CC(C)Oc1ccc(N(C)c2nc(Cl)nc3cnn(C)c23)cc1	0.89
CN(c1ccc(OC(F)(F)F)cc1)c1nc(Cl)nc2cnn(C)c12	0.83
CSc1ccc(N(C)c2nc(Cl)nc3cnn(C)c23)cc1	0.54

Please report the recorded Ratio IC50 for `CCOc1ccc(N(C)c2nc(Cl)nc3cnn(C)c23)cc1` .
2

Requested field: Ratio IC50. Item: `COc1ccc(N(C)c2nc(Cl)nc3cnn(C)c23)cc1F`
0.77

###

inhibition values by entry
# measuredOn: Tubulin (Homo sapiens) (UniProt P68371+Q9H4B7+P0DPH7+P68366+Q13509+Q71U36+P04350+Q3ZCM7+P07437+P68363+Q9BQE3+Q6PEY2+Q13885+Q9BVA1+Q9BUF5)
# experimentalDetails: Inhibition of [3H]colchicine binding to tubulin (unknown origin) at 0.5 uM relative to control
# Assay type: protein-complex assay
Note: unit % is implicit; provide only the numeric part.

COc1ccc2c(c1)CCCN2c1nc(Cl)nc2cnn(C)c12	68
COc1ccc(N(C)c2nc(Cl)nc3cnn(C)c23)cc1F	77
CCOc1ccc(N(C)c2nc(Cl)nc3cnn(C)c23)cc1	88
CSc1ccc(N(C)c2nc(Cl)nc3cnn(C)c23)cc1	64
COc1ccc(N(C)c2nc(Cl)nc3cnn(C)c23)cc1	68
COc1ccc(N(C)c2nc(C)nc3ccn(C)c23)cc1	79

Here's the next entry for you.
Any idea what its inhibition is? The molecule is `COc1ccc(N(C)c2nc(C)nc3c(Cc4ccccc4)cn(C)c23)cc1`
73

###

# Tested on: NCI/ADR-RES
# experimentalDetails: Antiproliferative activity against human NCI/ADR-RES cells overexpressing Pgp
# Type: functional, cell-based
Property: pIC50; scope: individual molecules
Please express pIC50 as -log10 of the molar concentration.

Some solved entries appear below for comparison.
CSc1ccc(N(C)c2nc(Cl)nc3cnn(C)c23)cc1	7.77
COc1ccc(N(C)c2nc(Cl)nc3cnn(C)c23)cc1	8.30
COc1ccc(N(C)c2nc(Cl)nc3cnn(C)c23)cc1F	8.15

Now examine the next entry.
What is its pIC50 for NCI/ADR-RES? Entry: `CN(c1ccc(OC(F)(F)F)cc1)c1nc(Cl)nc2cnn(C)c12`
6.14

###

# System: NCI/ADR-RES
# experimentalDetails: Antiproliferative activity against human NCI/ADR-RES cells overexpressing Pgp
# Type: functional, cell-based
parameterMeasured: pIC50
Please keep in mind that pIC50 is minus log10 of the molar concentration; only the number is needed.

Use the examples below as a reference point.
CCOc1ccc(N(C)c2nc(Cl)nc3cnn(C)c23)cc1	8.40
COc1ccc2c(c1)CCCN2c1nc(Cl)nc2cnn(C)c12	8.10

Proceed to the following item.
Reported pIC50 for NCI/ADR-RES, given `CC(C)Oc1ccc(N(C)c2nc(Cl)nc3cnn(C)c23)cc1` ?
7.36
